This collection of values is drawn from a melting point compilation (Tetko et al.; mined from patent text by program, amines drawn as free bases though some values may be those of a salt).

Property: melting point

Some molecules with known melting point results, for comparison:
Molecule: CC(C)(c1ccc(OS(=O)(=O)c2ccccc2)cc1)c1ccc(OS(=O)(=O)c2ccccc2)cc1
Value reported: 92 to 93 °C
//
Molecule: CCCc1cc(-c2noc3cc(O)ccc23)c(CC)cc1O
Value reported: 125 to 127 °C
//
Molecule: COc1cc(NC(=C(C#N)S(C)(=O)=O)C(C)C)cc(OC)c1
Value reported: 135 to 136 °C

# molecule `CN(C)CCCN1c2ccccc2C(c2ccccc2Cl)=Nc2cccnc21` ; its melting point = 104 to 106 °C

For record `CCSc1c(Cl)nc(Cl)nc1Cl` the listed melting point is 62 to 64 °C

The molecule listed as `COc1ccc(CN(C)C2CCN(c3ccc([N+](=O)[O-])cc3)CC2)cc1` shows melting point equal to 144 to 145 °C

Measured melting point, `CCOC(=O)COC(=O)COc1ccc(OCC(=O)OCC)cc1NC(=O)c1ccc(OCCCCc2ccccc2)cc1` : 64 °C

melting point measured on CCOC(=O)c1nc2cc(C(C(C)C)n3ccnc3)ccc2[nH]c1=O (stereo unspecified) = 230 °C

The measured melting point associated with N#CC1Cc2cc3cc[nH]c3cc21 (stereo unspecified) reads 126 to 128 °C

melting point recorded for this molecule, `O=C1Nc2ccc(-c3cc(F)cc(Br)c3)cc2C(C2CC2)(C2CC2)O1` , is 228 to 229 °C

response.value for O=C(O)C1CCc2c(c(=O)c3cccnc3n2-c2cccc(Cl)c2)C1 (stereo unspecified) (field: melting point) = 279 to 280 °C
